Origin of values: paper PMC6511062

Tested on: bloodstream T. brucei
Test: T. brucei stem-loop RNAi knock-down lines, drug sensitivity
Format: cell-based, Trypanosoma brucei
Details: Trypanosoma brucei, Tb927.9.15260 RNAi induced
quantity.measured: EC50 (nM)
Write the number in nM without appending the unit.

Task item: Identify measured EC50 corresponding to O=C(Nc1ccc(F)c(-c2cn3nc(-c4ccccc4)cnc3n2)c1)N1CCCC1
Reply: 8

* * *

Tested on: L. donovani promastigotes
Assay: microbe, parasite or virus in culture
Format: cell-based, Leishmania donovani
Settings: Leishmania donovani, RES III (compound 7-resistant clone)
quantity.measured: pEC50
# pEC50: negative log10 of molar concentration; output just the value

Task item: Given CC(C)C[C@H](NC(=O)[C@H](Cc1ccccc1)NC(=O)c1cnccn1)B(O)O [bortezomib, reference compound] , report its pEC50 on L. donovani promastigotes.
Reply: 7.49
